Origin of values: patent US20100210649A1

- System: H1650
- assay-remarks: Non Small Cell Lung Cancer proliferation assay (Alamar Blue reduction), H1650
- Assay type: cell-based, human
- protocol-conditions: Homo sapiens, NCI-H1650; primary screening; 10 μM compound in 1% DMSO (v/v); read-out: percentage inhibition H1650
metric-name: inhibition at 10 µM (%)
Report only the number, with the unit % understood.

Field: example entries. Status: answers known.
compound	system-name	measurement-unit	inhibition at 10 µM
O=c1c(Cl)cc(Cl)nn1-c1ccccc1 [compound 196392]	H1650	%	87
O=c1c(SCc2ccccc2)c(SCc2ccccc2)cnn1-c1ccc(Br)cc1 [compound 208699]	H1650	%	-12
CSc1cnn(-c2ccccc2)c(=O)c1SC [compound 104423]	H1650	%	-11
O=c1c(SCc2ccccc2)cc(Cl)nn1-c1ccccc1 [compound 208702]	H1650	%	3
CCCCSc1cnn(-c2ccccc2)c(=O)c1SCCCC [compound 224766]	H1650	%	-12
O=c1ccc(Cl)nn1-c1cccc(Br)c1 [compound 178393]	H1650	%	8

Quote inhibition at 10 µM reported for O=c1c(Cl)c(N2CCN(CCO)CC2)cnn1-c1cccc(Cl)c1 [compound 194617] please. -9

Quote inhibition at 10 µM reported for O=c1ccc(O)nn1-c1ccccc1 [compound 189286] please. 0

Quote inhibition at 10 µM reported for Cc1ccccc1-n1nc(C(=O)c2cccs2)cc(-c2nc3ccccc3[nH]2)c1=N [compound 186018] please. 42
